Biological target: T1, human CD137-His6 (Sino Biological #10041-H08H) (human, UniProt Q07011 24-186)
T1 construct: Bought; also called human CD137 protein; not shown: His6 tag
Test: SPR Biacore, IgG
Collected koff values appear next to each entry.
Record the value in s⁻¹, omitting the unit from your answer.

Answered examples (5):
BINDER	ENDPOINT RESULT
AG10080 (antibody, human IgG4 S228P, kappa, V domains shown, also called IgG of Fab 4217) VH: EVQLVESGGGLVQPGGSLRLSCAASGYSISSGYYWDWIRQAPGKGLEWVSSISGDGDTTYYADSVKGRFTISRDNSKNTLYLQLNSLRAEDTAVYYCAREYYGYGYALDYWGQGTLVTVSS VL: DIQLTQSPSSLSASVGDRVTITCRASQGISSYLAWYQQKPGKAPKLLIYDASSLESGVPSRFSGSGSGTDFTLTISSLQPEDFATYYCQQYYSTPLTFGQGTKVEIKR	0.012
AG10054 (antibody, human IgG4 S228P, kappa, V domains shown, also called IgG of Fab 4072) VH: EVQLVESGGGLVQPGGSLRLSCAASGFSLSTSGVAVSWIRQAPGKGLEWIGIINPNFGDTNYAQKFQGRVTISRDNSKNTLYLQLNSLRAEDTAVYYCARDEYYGGSYYFDYWGQGTLVTVSS VL: DIQLTQSPSSLSASVGDRVTITCRASQDVRTAVAWYQQKPGKAPKLLIYDASNLETGVPSRFSGSGSGTDFTLTISSLQPEDFATYYCQQSYDWPPTFGQGTKVEIKR	0.0019
AG10060 (antibody, human IgG4 S228P, kappa, V domains shown, also called IgG of Fab 5359) VH: EVQLVESGGGLVQPGGSLRLSCAASGFSLSTSGVGVGWIRQAPGKGLEWLALIDWADDKYYSPSLKSRLTISRDNSKNTLYLQLNSLRAEDTAVYYCARGGSDAVLGDWFAYWGQGTLVTVSS VL: DIQLTQSPSSLSASVGDRVTITCRASQGIGSYLAWYQQKPGKAPKLLIYDASNLETGVPSRFSGSGSGTDFTLTISSLQPEDFATYYCQQGYSIWTFGQGTKVEIKR	0.00025
AG10084 (antibody, human IgG4 S228P, kappa, V domains shown) VH: EVQLVESGGGLVQPGGSLRLSCAASGYSITSGHYWNWIRQAPGKGLEWVSGISGDGSSTYYADSVKGRFTISRDNSKNTLYLQLNSLRAEDTAVYYCARGGSDAVLGDWFAYWGQGTLVTVSS VL: DIQLTQSPSSLSASVGDRVTITCRASQSISSYLAWYQQKPGKAPKLLIYDASNLETGVPSRFSGSGSGTDFTLTISSLQPEDFATYYCQQGYSTWTFGQGTKVEIKR	0.0028
AG10127 (antibody, human IgG4 S228P, kappa, V domains shown, also called IgG of Fab 5318) VH: EVQLVESGGGLVQPGGSLRLSCAASGFSLSTSGVAVGWIRQAPGKGLEWLALIDWDDDKYYSTSLKSRLTISRDNSKNTLYLQLNSLRAEDTAVYYCAREGSTAVAGDWFAYWGQGTLVTVSS VL: DIQLTQSPSSLSASVGDRVTITCQASQDIRTFLAWYQQKPGKAPKLLIYDASNRATGIPSRFSGSGSGTDFTLTISSLQPEDFATYYCQQGYSTWTFGQGTKVEIKR	0.0029

Lookup: Endpoint output: koff of AG10081 (antibody, human IgG4 S228P, kappa, V domains shown, also called IgG of Fab 5299) VH: EVQLVESGGGLVQPGGSLRLSCAASGYSISSGHYWGWIRQAPGKGLEWLALIDWYGDKYYSTSLKSRLTISRDNSKNTLYLQLNSLRAEDTAVYYCARSDYYGSHFDYWGQGTLVTVSS VL: DIQLTQSPSSLSASVGDRVTITCRASESVDFDGFSFLAWYQQKPGKAPKLLIYDASNLETGVPSRFSGSGSGTDFTLTISSLQPEDFATYYCQQYDTLPRTFGQGTKVEIKR . Value?
Found: 0.0017
